assay.target: Beta-adrenergic receptor kinase 1 (Homo sapiens)
protocol.notes: GRK2 binders displacing RNA aptamer, biochemical, validation, human GRK2, bead flow cytometry (AID 488806)
experimental.context: bead-bound GRK2, FAM-aptamer displacement, at 10 µM, hits give high values
readout.kind: aptamer binding inhibition (%)
Your answer is read as %, so omit the unit and give the number.

**Q:** Which aptamer binding inhibition value belongs to COc1cc(NC(=O)N[C@@H](Cc2ccccc2)C(=O)O)cc(OC)c1 ?
**A:** 3

**Q:** Which aptamer binding inhibition value belongs to CCOC(=O)c1ccc(N2C(=O)C(CC(N)=O)N(CCc3ccc(OC)c(OC)c3)C2=S)cc1 (stereo unspecified) ?
**A:** 2

**Q:** Which aptamer binding inhibition value belongs to CC[C@H]1OC(=O)[C@H](C)[C@@H](O[C@H]2C[C@@](C)(OC)[C@@H](O)[C@H](C)O2)[C@H](C)[C@@H](O[C@@H]2O[C@H](C)C[C@H](N(C)C)[C@H]2O)[C@](C)(O)C[C@@H](C)[C@@H]2N[C@@H](COCCOC)O[C@H]([C@H]2C)[C@]1(C)O ?
**A:** 29

**Q:** Which aptamer binding inhibition value belongs to COc1ccc2cc[nH]c2c1 ?
**A:** 2

**Q:** Which aptamer binding inhibition value belongs to CCOC(=O)c1oc2cc(OCC(N)=O)ccc2c(=O)c1-c1ccc(OC)c(OC)c1 ?
**A:** 1

**Q:** Which aptamer binding inhibition value belongs to CC[N+](C)(CC)CCOC(=O)C(O)(c1ccccc1)C1CCCCC1 (stereo unspecified) ?
**A:** -3

**Q:** Which aptamer binding inhibition value belongs to OCC1(CCOc2ccccc2)CCN(CCCn2cccn2)CC1 ?
**A:** 0

**Q:** Which aptamer binding inhibition value belongs to Cc1ccccc1OCC(O)CN1CCN(C)CC1 (stereo unspecified) ?
**A:** 3

**Q:** Which aptamer binding inhibition value belongs to COc1ccc(CCN2CCC(Nc3nc4ccccc4n3Cc3ccc(F)cc3)CC2)cc1 ?
**A:** -15

**Q:** Which aptamer binding inhibition value belongs to O=C(NCCCCCc1nc2ccccc2[nH]1)c1ccccc1Cl ?
**A:** 3

**Q:** Which aptamer binding inhibition value belongs to CC(=O)OCC1OC(n2ccc(=O)[nH]c2=O)C(O)C1O (stereo unspecified) ?
**A:** 1

**Q:** Which aptamer binding inhibition value belongs to Cc1ccc(S(=O)(=O)Nc2ccc(S(=O)(=O)Nc3cc(C)nc(C)n3)cc2)cc1 ?
**A:** 0

**Q:** Which aptamer binding inhibition value belongs to COc1cc2c(cc1OC)-c1cc(OCc3ccccc3Cl)nc(=O)n1CC2 ?
**A:** 4

**Q:** Which aptamer binding inhibition value belongs to CC(=O)OCC(OC(C)=O)C(OC(C)=O)C(OC(C)=O)C(=O)Nc1cccc(C)c1 (stereo unspecified) ?
**A:** 3

**Q:** Which aptamer binding inhibition value belongs to Cc1ccc(-n2ncc3c(Nc4cccc(C(=O)O)c4)ncnc32)cc1 ?
**A:** -2

**Q:** Which aptamer binding inhibition value belongs to CC1(C)OC2OC(C(=O)N/N=C/c3ccccc3F)C3OC(C)(C)OC3C2O1 (stereo unspecified) ?
**A:** 1

**Q:** Which aptamer binding inhibition value belongs to COc1cc(/C=C/C(=O)N2CCCC2)cc(OC)c1OC ?
**A:** 5

**Q:** Which aptamer binding inhibition value belongs to COc1ccc(-c2c(NC(=O)c3ccco3)n(C)c3ccccc3c2=O)cc1 ?
**A:** 3

**Q:** Which aptamer binding inhibition value belongs to CC(C)(C)NC[C@H](O)COc1nsnc1N1CCOCC1 ?
**A:** 3

**Q:** Which aptamer binding inhibition value belongs to COc1ccc(-c2noc(CCc3ccccc3)n2)cc1 ?
**A:** 0

**Q:** Which aptamer binding inhibition value belongs to CCc1cc(=O)oc2cc(C)c(CN3CCCC(C)C3)c(O)c12 (stereo unspecified) ?
**A:** 2
